# Tested on: BDF1 mice, P388 leukemia (terephthalanilide-resistant), survival T/C
# Assay remarks: NCI In Vivo Anticancer Drug Screen. Data for tumor model P388 Leukemia resistant to A Terephthalanilide; NSC 38280 (intraperitoneal) in B6D2F1 (BDF1) mice
# Measurement context: endpoint: median survival time; dose: 8.0 mg/kg/injection; schedule: Q01DX010 (ip); vehicle: saline; higher = longer survival
Toxic doses and inconclusive results are not listed.

| Molecule | T/C |
| --- | --- |
| O=C(Nc1ccc(C2=NCCN2)cc1)c1cccc(C(=O)Nc2ccc(C3=NCCN3)cc2)c1 | 112 % of control |
| Nc1nc(=S)c2ncn(C3OC(CO)C(O)C3O)c2[nH]1 (configuration not stated) | 105 % of control |
| CCCNC(=NC)c1ccc(NC(=O)c2ccc(C(=O)Nc3ccc(C(=NC)NCCC)cc3)cc2)cc1 | 100 % of control |
| Nc1nc(SCc2ccccc2)c2[nH]cnc2n1 | 105 % of control |
| O=C(Nc1ccc(NC2=NCCN2)cc1)c1ccc(C(=O)Nc2ccc(NC3=NCCN3)cc2)cc1 | 181 % of control |
| CC(CCC(C)OS(C)(=O)=O)OS(C)(=O)=O (configuration not stated) | 100 % of control |
| c1ccc(CNc2ncnc3[nH]ncc23)cc1 | 90 % of control |

* * *

Known T/C of a selection of molecules
# System: BDF1 mice, P388 leukemia (terephthalanilide-resistant), survival T/C
# Assay remarks: NCI In Vivo Anticancer Drug Screen. Data for tumor model P388 Leukemia resistant to A Terephthalanilide; NSC 38280 (intraperitoneal) in B6D2F1 (BDF1) mice
# Measurement context: endpoint: median survival time; dose: 10.0 mg/kg/injection; schedule: Q01DX010 (ip); vehicle: saline; higher = longer survival
Toxic doses and inconclusive results are not listed.

| Molecule | T/C |
| --- | --- |
| Oc1cc(CN(CCCl)CCCl)c(O)cc1CN(CCCl)CCCl | 110 % of control |
| C[C@@H]1C[C@@H]([C@H](O)CC2CC(=O)NC(=O)C2)C(=O)[C@@H](C)C1 | 100 % of control |
| CC1CCOS(=O)O1 (stereo not given) | 100 % of control |
| CC1CN=C(c2ccc(NC(=O)c3ccc(C(=O)Nc4ccc(C5=NCC(C)N5)cc4)cc3)cc2)N1 (stereo not given) | 111 % of control |
| Nc1nc(=S)c2[nH]cnc2[nH]1 | 112 % of control |

* * *

# Tested on: BDF1 mice, P388 leukemia (terephthalanilide-resistant), survival T/C
# Assay remarks: NCI In Vivo Anticancer Drug Screen. Data for tumor model P388 Leukemia resistant to A Terephthalanilide; NSC 38280 (intraperitoneal) in B6D2F1 (BDF1) mice
# Measurement context: endpoint: median survival time; dose: 18.0 mg/kg/injection; schedule: Q01DX010 (ip); vehicle: saline; higher = longer survival
Toxic doses and inconclusive results are not listed.
Readout name: T/C

| Molecule | Reported value |
| --- | --- |
| CC1CN=C(c2ccc(NC(=O)c3cccc(C(=O)Nc4ccc(C5=NCC(C)N5)cc4)c3)cc2)N1 (stereo not given) | 100 % of control |
| O=C(Nc1ccc(C2=NCCN2)cc1)c1ccc(NC(=O)c2ccc(C3=NCCN3)cc2)cc1 | 100 % of control |
| CN=C(NC)c1ccc(NC(=O)c2ccc(C(=O)Nc3ccc(C(=NC)NC)cc3)c(Cl)c2)cc1 | 105 % of control |
| CCCNC(=NC)c1ccc(NC(=O)c2ccc(C(=O)Nc3ccc(C(=NC)NCCC)cc3)cc2)cc1 | 111 % of control |
| C[n+]1c2ccccc2nc2c(N)cc(N)cc21 | 100 % of control |
